SYSTEM_NAME: SpCas9 (Streptococcus pyogenes serotype M1, UniProt Q99ZW2)
Sequence (Q99ZW2 whole entry): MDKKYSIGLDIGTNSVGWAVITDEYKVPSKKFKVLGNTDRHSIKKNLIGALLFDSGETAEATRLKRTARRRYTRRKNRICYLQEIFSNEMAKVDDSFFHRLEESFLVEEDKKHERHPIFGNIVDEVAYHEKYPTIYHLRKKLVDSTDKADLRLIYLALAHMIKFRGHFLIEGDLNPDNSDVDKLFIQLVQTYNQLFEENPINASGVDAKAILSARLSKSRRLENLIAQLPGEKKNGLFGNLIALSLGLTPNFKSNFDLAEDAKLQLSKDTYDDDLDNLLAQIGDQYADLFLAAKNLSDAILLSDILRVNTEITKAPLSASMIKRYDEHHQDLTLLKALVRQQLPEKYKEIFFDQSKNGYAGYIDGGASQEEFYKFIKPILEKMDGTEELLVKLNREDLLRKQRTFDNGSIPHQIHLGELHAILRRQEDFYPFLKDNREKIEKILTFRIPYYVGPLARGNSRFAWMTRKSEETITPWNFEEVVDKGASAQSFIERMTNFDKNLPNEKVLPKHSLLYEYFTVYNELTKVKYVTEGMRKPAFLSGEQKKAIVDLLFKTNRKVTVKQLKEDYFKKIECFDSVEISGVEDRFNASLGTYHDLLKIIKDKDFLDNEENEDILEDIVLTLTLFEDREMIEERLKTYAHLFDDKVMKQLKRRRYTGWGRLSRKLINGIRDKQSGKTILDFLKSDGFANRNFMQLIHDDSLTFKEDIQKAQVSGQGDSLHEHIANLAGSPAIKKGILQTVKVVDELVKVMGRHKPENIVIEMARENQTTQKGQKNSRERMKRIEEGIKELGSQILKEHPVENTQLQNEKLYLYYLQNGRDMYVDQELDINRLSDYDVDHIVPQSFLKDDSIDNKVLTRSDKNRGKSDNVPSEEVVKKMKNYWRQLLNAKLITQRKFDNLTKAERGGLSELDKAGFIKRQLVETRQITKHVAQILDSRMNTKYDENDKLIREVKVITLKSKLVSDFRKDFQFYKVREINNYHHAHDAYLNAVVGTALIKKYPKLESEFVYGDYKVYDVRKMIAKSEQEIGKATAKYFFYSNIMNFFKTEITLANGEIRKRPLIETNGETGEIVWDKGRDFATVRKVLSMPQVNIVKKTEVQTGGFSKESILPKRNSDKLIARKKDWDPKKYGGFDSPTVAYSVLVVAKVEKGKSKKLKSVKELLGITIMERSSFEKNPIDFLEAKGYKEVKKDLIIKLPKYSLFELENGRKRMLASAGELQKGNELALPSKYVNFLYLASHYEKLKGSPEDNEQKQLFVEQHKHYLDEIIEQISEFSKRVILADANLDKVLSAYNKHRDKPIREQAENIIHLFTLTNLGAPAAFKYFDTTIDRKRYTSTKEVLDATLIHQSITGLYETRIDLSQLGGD
ASSAY: Strand displacement assay (SDA) / cumulative activity assay (CAA), SpCas9 primary screen
Format: biochemical
EXPERIMENTAL_CONTEXT: Primary Screen (150 min); replicate 1
PROPERTY_NAME: Normalized Z score 1

[
  {
    "SMILES": "O=C(CCS(=O)(=O)c1ccc(Cl)cc1)Nc1nc(-c2ccccn2)cs1",
    "READOUT_NUMBER": 0.05
  },
  {
    "SMILES": "CN1CCN(c2ccc(CNC(=O)Cn3ccc4c(SCc5ccccc5)nccc43)cc2)CC1",
    "READOUT_NUMBER": 0.05
  },
  {
    "SMILES": "O=C(NCc1ccc2c(c1)OCO2)c1cccc(Oc2cc(-c3ccccc3)ncn2)c1",
    "READOUT_NUMBER": 0.38
  },
  {
    "SMILES": "O=C(Nc1nc(-c2ccccc2)c(C(=O)c2ccccc2)s1)c1ccc2c(c1)OCCO2",
    "READOUT_NUMBER": 0.04
  },
  {
    "SMILES": "CCn1c(=O)c(C(=O)Nc2nccc(C)n2)c(O)c2ccccc21",
    "READOUT_NUMBER": 0.19
  }
]

Attribution: patent US20240115557A1
